# Tested on: KG-1
# protocolDetails: cell viability (% survival relative to DMSO control, bortezomib = 0%); higher = less cytotoxic
# assaySetup: 100 nM; 72 h
The compounds listed here are annotated with their cell viability.
observable: cell viability (%)

> print(dat)
                                   compound  targetsystem      observable  valueunits  datavalue
1  NS(=O)(=O)c1ccc([N+](=O)[O-])cc1 [4-Nitrobenzenesulfonamide]          KG-1  cell viability           %       92.4
2  CC(C)(C#N)c1cc(Cn2cncn2)cc(C(C)(C)C#N)c1 [Anastrozole]          KG-1  cell viability           %        103
3     C=C(C=NNC(=N)N)NNC(=N)N [Mitoguazone]          KG-1  cell viability           %        103
4  CCOC(=O)c1ccc(-c2ccc(OC(=O)N(C)Cc3cccc(-c4ccncc4)c3)cc2)cc1 [WWL113]          KG-1  cell viability           %       92.7
5  Nc1nc(Cl)nc2c1ncn2[C@H]1C[C@H](O)[C@@H](CO)O1 [Cladribine]          KG-1  cell viability           %        102
6  O=c1oc2c(O)c(O)cc3c(=O)oc4c(O)c(O)cc1c4c23 [Benzoaric Acid]          KG-1  cell viability           %       96.6
7  NC(=O)c1cccc(-c2cccc(OC(=O)NC3CCCCC3)c2)c1 [URB-597]          KG-1  cell viability           %        102
8  O=c1cc(-c2ccccc2)oc2cc(O)c(O)c(O)c12 [Baicalein]          KG-1  cell viability           %        112
9  CCCc1cc(-c2nc(-c3ccc(C)cc3)cs2)ccn1 [Fatostatin]          KG-1  cell viability           %        106

---

The molecules listed here are annotated with their cell viability.
# System: BV-173
# protocolDetails: cell viability (% survival relative to DMSO control, bortezomib = 0%); higher = less cytotoxic
# assaySetup: 10 nM; 72 h
Counter-ions that a name gives are not always drawn.
observable: cell viability

> print(dat)
                                    molecule  datavalue
 1  Cc1cc(CS(=O)(=O)c2ccccc2)cc(OCc2ccc(CN3CCC[C@@H]3CO)cc2)c1 [PF-543 hydrochloride]       103%
 2  COc1ccc(S(=O)(=O)N2CCN(S(=O)(=O)c3ccc4c(c3)OCCO4)CC2)cc1      85.8%
 3  Cc1cn([C@H]2C[C@H](O)[C@@H](COP(=O)(O)OP(=O)(O)O)O2)c(=O)[nH]c1=O [Thymidine diphosphate]      83.5%
 4  NCCCC(N)(C(=O)O)C(F)F (stereo unspecified)      91.2%
 5                            O=C(O)C(=O)CBr      85.9%
 6  N/C(=N\CCCC(N)C(=O)O)N[N+](=O)[O-] (stereo unspecified)       103%
 7        O[C@H]1[C@H]2[C@H](O)CCCN2C[C@H]1O       104%
 8  O=C(O)Cn1nnc(-c2cc(N3CCC(Oc4cc(F)ccc4Br)CC3)no2)n1       105%
 9           N#CC(C#N)=NNc1ccc(OC(F)(F)F)cc1      94.9%
10  N#Cc1ccnc(N2C(=O)CC[C@H]2C(=O)N(c2cncc(F)c2)C(C(=O)NC2CC(F)(F)C2)c2ccccc2Cl)c1 (stereo partly specified)      95.1%
11  CC(C)c1onc(-c2c(Cl)cccc2Cl)c1COc1ccc(/C=C/c2cccc(C(=O)O)c2)c(Cl)c1      96.2%

---

# System: Mono-Mac-6
# protocolDetails: cell viability (% survival relative to DMSO control, bortezomib = 0%); higher = less cytotoxic
# assaySetup: 100 nM; 72 h
The compounds listed here are annotated with their cell viability.
observable: cell viability (%)

> print(dat)
                                   compound  targetsystem  datavalue
1  CCOP(=O)(OCC)C(=Cc1cc(C(C)(C)C)c(O)c(C(C)(C)C)c1)P(=O)(OCC)OCC    Mono-Mac-6        129
2  CCN(CC)CCCC(C)Nc1ccnc2cc(Cl)ccc12 (stereo not given) [Chloroquine]    Mono-Mac-6        104
3  CC[C@@]1(O)C(=O)OCc2c1cc1n(c2=O)Cc2cc3c(CN(C)C)c(O)ccc3nc2-1 [Topotecan]    Mono-Mac-6        2.7
4  COc1ccc(C(=O)Nc2c(Cl)cncc2Cl)cc1OC1CCCC1 [Piclamilast]    Mono-Mac-6       80.6
5  NCCCC(N)(C(=O)O)C(F)F (stereo not given) [Difluoromethylornithine]    Mono-Mac-6       94.2

---

# System: MOLM-13
# protocolDetails: cell viability (% survival relative to DMSO control, bortezomib = 0%); higher = less cytotoxic
# assaySetup: 1000 nM; 72 h
The compounds listed here are annotated with their cell viability.
observable: cell viability (%)

> print(dat)
                                   compound      observable  valueunits  datavalue
1  NCCCC(N)(C(=O)O)C(F)F (stereo not drawn)  cell viability           %        107
2  O=C(O)c1cc(N=Nc2ccc(S(=O)(=O)Nc3ccccn3)cc2)ccc1O  cell viability           %       84.6
3        Oc1ccc(Nc2nc(-c3ccc(Cl)cc3)cs2)cc1  cell viability           %        106

---

# Tested on: myeloid leukemia patient primary cells Pat.11
# protocolDetails: cell viability (% survival relative to DMSO control); higher = less cytotoxic
# assaySetup: 100 nM; 72 h
observable: cell viability

> print(dat)
                                   molecule  datavalue
1    N#CC(C#N)=NNc1ccc(OC(F)(F)F)cc1 [FCCP]     > 100%
2  C[C@H](NC(=O)c1sccc1OCc1ccc(Cl)cc1)c1ccccc1     > 100%
3  O=C(O)Cn1nnc(-c2cc(N3CCC(Oc4cc(F)ccc4Br)CC3)no2)n1 [MK-8245]     > 100%

---

# Tested on: KU-812
# protocolDetails: cell viability (% survival relative to DMSO control, bortezomib = 0%); higher = less cytotoxic
# assaySetup: 1000 nM; 72 h
Decide using cell viability alone. Strictly below 90%: y. Equal to or above 90%: n.

> print(dat)
                                   compound  classification
1  CC[C@@]1(O)C(=O)OCc2c1cc1n(c2=O)Cc2cc3c(CN(C)C)c(O)ccc3nc2-1 [Topotecan]               y
2  CCCCCCCCCCCC(=O)c1c(O)c(C(=O)CCCCCCCCCCC)c(O)c(C2CC(c3ccc(O)cc3)Oc3cc(O)ccc32)c1O (stereo unspecified)               n
3  O=C(NCCCCCCNC(=O)ONC1=CCCCC1)ONC1=CCCCC1               n

---

The compounds listed here are annotated with their cell viability.
# Tested on: KU-812
# protocolDetails: cell viability (% survival relative to DMSO control, bortezomib = 0%); higher = less cytotoxic
# assaySetup: 1 nM; 72 h
observable: cell viability (%)

> print(dat)
                             compoundsmiles  datavalue
1  COc1ccc(CNC(=O)Nc2ncc([N+](=O)[O-])s2)cc1       97.8
2  O=C(O)Cn1nnc(-c2cc(N3CCC(Oc4cc(F)ccc4Br)CC3)no2)n1         99
3                            O=C(O)C(=O)CBr         88
4        O[C@H]1[C@H]2[C@H](O)CCCN2C[C@H]1O        104
5  CC[C@H](C)C(=O)O[C@H]1C[C@@H](C)C=C2C=C[C@H](C)[C@H](CC[C@@H]3C[C@@H](O)CC(=O)O3)[C@H]21        102

---

The molecules listed here are annotated with their cell viability.
# Tested on: MV4-11
# protocolDetails: cell viability (% survival relative to DMSO control, bortezomib = 0%); higher = less cytotoxic
# assaySetup: 1000 nM; 72 h
observable: cell viability (%)

> print(dat)
                                   molecule      observable  datavalue
1  C[C@H](NC(=O)c1sccc1OCc1ccc(Cl)cc1)c1ccccc1  cell viability       96.1
2  NC(=O)c1cccc(-c2cccc(OC(=O)NC3CCCCC3)c2)c1  cell viability       99.6
3  CCCCCCCCCCC[C@@H](C[C@@H]1OC(=O)[C@H]1CCCCCC)OC(=O)[C@H](CC(C)C)NC=O  cell viability        109
4  Cc1ccccc1C(C(=O)NC1CCCCC1)N(C(=O)Cn1ccnc1C)c1cccc(F)c1 (stereo unspecified)  cell viability       91.4
5  CC[C@H](C)C(=O)O[C@H]1C[C@@H](C)C=C2C=C[C@H](C)[C@H](CC[C@@H]3C[C@@H](O)CC(=O)O3)[C@H]21  cell viability       93.5
6  O=c1oc2c(O)c(O)cc3c(=O)oc4c(O)c(O)cc1c4c23  cell viability       94.2
